Test system: Lefty1
Measurement Protocol: Lefty1 protein binding to printed compounds – biochemical, small-molecule microarray, 635/667 nm fluorescence, primary screen (AID 1139)
Test Parameters: fluorescence 635/667, higher = more signal
Attribute Measured: composite z-score

NCCCCCCNC(=O)[C@@H]1C[C@@H]2C(=O)N3CCC[C@H]3C(=O)N2[C@@H]1c1cccc(OCCO)c1: 1.24
C=CCC(OC(C)=O)[C@@H]1[C@@H](N(Cc2ccc(-c3ccccc3)cc2)C(=O)c2cccc3ccccc23)c2cc(OCCCO)ccc2N1C(=O)Cc1ccc(OC)cc1 (some centres not stated): 0.0844
COCCOC(=O)N1C(=O)[C@@]2(c3cc(C#CCCO)ccc31)[C@H](C(N)=O)[C@H]1C(=O)O[C@H](c3ccccc3)[C@H](c3ccccc3)N1[C@@H]2c1ccccc1OCCO: 0.673

Batch of 4 molecules: report composite z-score for each.
1. CC(C)OC(=O)CC(=O)CC(O)c1cccc([N+](=O)[O-])c1 (configuration not stated)
2. CC(C)(C)OC(=O)CC[C@]1(C(=O)NCC(O)CO)N=C(c2ccc(OCCCO)cc2)O[C@H]1c1ccccc1N=[N+]=[N-] (some centres not stated)
3. CC(C)[Si](C#CCCc1ccccc1)(O[C@H](c1ccccc1)c1cn(Cc2ccccc2)nn1)C(C)C
4. O=C(NCc1ccc(F)cc1)[C@H]1C[C@H]2C(=O)N3CCC[C@H]3C(=O)N2[C@H]1c1ccc(O)cc1

-0.0245
-0.41
0.919
-0.557
